Exercise: state measured melting point for each of the compounds provided.

[[record]]
compound = "CC(C)(C)OC(=O)CC(NC(=O)C1CCCN2C(=O)CCC(NC(=O)c3ccccc3)C(=O)N12)C(=O)COC(=O)c1c(Cl)cccc1Cl (centres undefined)"
experimental_result = "102 to 107 °C"


Go through the items and report each one's melting point.
1. c1cc(-c2cncnc2)cc(-n2cnc3cc(-c4ccoc4)ccc32)c1
2. CCCCCC(=O)N1CCN2C[C@@H](c3ccccc3)c3ccccc3[C@@H]2C1 (relative stereo)
3. CC(C(N)=O)c1ccc(-n2cc(Cl)cn2)c(Cl)c1 (centres undefined)
4. O=C(Nc1cc(C(=O)NCCc2ccccc2)ccc1O)C(=O)Nc1cc(Cl)cc(Cl)c1O
5. CCN1CCc2ccc(Nc3ncc(Cl)c(NCCNS(C)(=O)=O)n3)cc2CC1
6. CCc1cnc2c(NC(=O)c3c(Cl)cccc3Cl)cccc2c1-n1ccnc1
7. COc1ccc2c(c1)N(CCNC(C)=O)CC(c1ccccc1)O2 (centres undefined)
8. CCCc1c(Cl)nc(NC=O)nc1Cl

**Result**
["216 to 218 °C", "163 to 164 °C", "131 to 132 °C", "265 °C", "146 °C", "187 to 188 °C", "153 to 154 °C", "92 to 94 °C"]

----------
recorded.metric: melting point

Go through the items and report each one's melting point.
1. CNc1nnnn1-c1ccccc1C(=O)O
2. O=C(O)Cc1ccc(CN2CCN(c3ccccc3C(=O)O)CC2)cc1
3. Cc1ccc(-c2cnc([C@H]3CC[C@H](C#N)CC3)nc2)cc1
4. CN1C(=O)CCC1(O)c1ccc(Cl)c(S(=O)(=O)Nc2cc(C(C)(C)C)c(O)c(C(C)(C)C)c2)c1 (stereo unspecified)
5. O=C(Oc1ccc(Cl)cc1)c1cccc(Cl)c1
6. COC(=O)C1CC(=O)NC(Cc2ccccc2)C1=O (stereo unspecified)

**Result**
1. 152 to 154 °C
2. 179 to 181 °C
3. 172 °C
4. 120 to 130 °C
5. 72 °C
6. 146 to 148 °C

Go through the items and report each one's melting point.
1. COc1ccc2c(c1)SCCC2=O
2. C[C@H](NCc1ccc(OCc2ccccc2F)c(Cc2ccccc2F)c1)C(N)=O

**Result**
1. 49 to 51 °C
2. 161 °C

Go through the items and report each one's melting point.
1. Cc1cc(C)c2c(c1C)OC(=O)C2c1ccc(Br)cc1 (stereo unspecified)
2. Cc1c(NC(=O)c2ccc(-c3ccc(F)cc3)cc2)ccc2cc(CN3CCCCC3)cnc12

**Result**
168 to 169 °C
188 to 190 °C

**Query** // query melting point value for entry N#CCCNC(=O)c1n[nH]cc1NC(=O)c1ccccc1
**Result** 186 to 187 °C

----------
Exercise: state measured melting point for each of the molecules provided.
One number for each entry, in °C.

[[record]]
molecule = "COC(=O)c1cc(C#CCOC2CCCCO2)c(C(F)(F)F)cc1N (stereo not given)"
recorded_metric = "melting point"
experimental_result = 88


We next turn to a different molecule, shown below.
**Query** // query melting point value for entry CN1CCN(c2cc3c(cc2Cl)c(=O)c(C(=O)O)cn3C)CC1
**Result** 286

----------
Exercise: state measured melting point for each of the molecules provided.

[[record]]
molecule = "NCCOc1c(Cl)ccc2c1c1cccc3c1n2C(c1ccccc1)CO3 (stereo unspecified)"
recorded_metric = "melting point"
experimental_result = "127 to 128 °C"

[[record]]
molecule = "CC(=O)Nc1ccc(-c2ccc3c(c2)C(C)(C)OC(=O)N3)cc1F"
recorded_metric = "melting point"
experimental_result = "245 to 247 °C"

[[record]]
molecule = "CN1CCCC1CNC(=O)c1ccc(S(=O)(=O)N(C)C)c2c1OCCO2 (stereo unspecified)"
recorded_metric = "melting point"
experimental_result = "165 to 166 °C"

[[record]]
molecule = "CCOC(=O)C(=CN(C)C)C(=O)c1cc2cc(F)c(F)cc2nc1Cl"
recorded_metric = "melting point"
experimental_result = "140 °C"

[[record]]
molecule = "COC(=O)[C@H](Cc1c(Br)n(C(=O)OC(C)(C)C)c2cc(Br)c(OC)c(Br)c12)NC(C)=O"
recorded_metric = "melting point"
experimental_result = "126 to 128 °C"


Go through the items and report each one's melting point.
1. CC(C)(C)[Si](C)(C)O[C@H]1CCNC1=O
2. COc1ccc2c(=O)c(O)cn(C)c2c1
3. CC(C)Oc1c(CO)cnc2c(Cl)cccc12
4. COc1ccc(OCC(N)=O)c([N+](=O)[O-])c1
5. O=C(O)c1ccc(CSc2nnc(-c3ccc4c(c3)CCO4)o2)cc1
6. CCCc1nc2nccc(C)c2[nH]1
7. CN(C)c1ccc(CNC(=O)c2cccnc2Oc2ccc(F)cc2)cc1

**Result**
1: 48 to 49 °C; 2: 228 °C; 3: 88 to 89 °C; 4: 190 to 191 °C; 5: 203 to 205 °C; 6: 110 to 112 °C; 7: 99.5 to 102 °C
